test system: Hepatitis C virus; assay: Antiviral activity against HCV infected in human Huh-7 cells assessed as reduction in viral replication measured after 48 hrs in presence of esterase inhibitor bis-p-nitrophenyl phosphate by luciferase reporter gene assay; assay type: functional, organism-based, Hepacivirus hominis; conditions: Huh-7, 48 h
pIC50: −log10 of the molar value.
MEASURED METRIC: pIC50

>>> number("COc1cc(C(=O)Nc2ccn([C@@H]3O[C@H](CO)[C@@H](O)C3(F)F)c(=O)n2)cc(OC)c1OC")
7.09
